The measurements presented in this section are drawn from paper PMC6630832.

Tested on: human MCF-7 breast cancer cells
Measurement Protocol: Cell viability (Alamar Blue) antiproliferative assay in MCF-7 cells
Format: cell-based
Reported Conditions: Homo sapiens, MCF7, 72 h, human MCF-7 breast cancer cells; 72 h; mean ± SEM; read-out: Antiproliferative Activity IC50
Description: The human breast carcinoma cell line MCF-7, was purchased from the European Collection of Animal Cell Cultures (ECACC) and was cultured in Eagle’s minimum essential medium with 10% fetal bovine serum, 2 mM L-glutamine and 100 μg/mL penicillin/streptomycin. […] Cells were seeded at a density of 5 × 10^3 cells/well (MCF-7), in triplicate in 96-well plates. […] Fluorescence was read using a 96-well fluorimeter with excitation at 530 nm and emission at 590 nm. […]
pIC50: −log10 of the molar value.
// reported pIC50 per item
Observable: pIC50

>  <Compound>
C=CC1C(=O)N(c2cc(OC)c(OC)c(OC)c2)C1c1ccc(Cl)cc1 (stereo not drawn)

>  <Relation Sign>
=

>  <Reading>
6.16

$$$$
>  <Compound>
C=CC1C(=O)N(c2cc(OC)c(OC)c(OC)c2)C1c1ccc(OC)c(O)c1 (stereo not drawn)

>  <Relation Sign>
=

>  <Reading>
8.10

$$$$
>  <Compound>
C=CC1C(=O)N(c2cc(OC)c(OC)c(OC)c2)C1c1ccc(SC)cc1 (stereo not drawn)

>  <Relation Sign>
=

>  <Reading>
7.29

$$$$
>  <Compound>
C=CC1C(=O)N(c2ccc(OC)cc2)C1c1cc(OC)c(OC)c(OC)c1 (stereo not drawn)

>  <Relation Sign>
=

>  <Reading>
4.19

$$$$
>  <Compound>
C=CC1C(=O)N(c2cc(OC)cc(OC)c2)C1c1ccc(OC)cc1 (stereo not drawn)

>  <Relation Sign>
=

>  <Reading>
6.77

$$$$
>  <Compound>
C=CC1C(=O)N(c2cc(OC)c(OC)c(OC)c2)C1c1ccc2ccccc2c1 (stereo not drawn)

>  <Relation Sign>
=

>  <Reading>
7.17

$$$$
>  <Compound>
C/C=C/C(O)C1C(=O)N(c2cc(OC)c(OC)c(OC)c2)C1c1ccc(OC)cc1 (stereo not drawn) [Compound 10b]

>  <Relation Sign>
=

>  <Reading>
6.53

$$$$
>  <Compound>
C=CC1C(=O)N(c2cc(OC)c(OC)c(OC)c2)C1c1ccc(OCc2ccccc2)cc1 (stereo not drawn)

>  <Relation Sign>
=

>  <Reading>
5.10

$$$$
>  <Compound>
C=CC1C(=O)N(c2ccc(SC)cc2)C1c1cc(OC)c(OC)c(OC)c1 (stereo not drawn)

>  <Relation Sign>
<

>  <Reading>
4.30

$$$$
>  <Compound>
C=CC1C(=O)N(c2ccc(F)cc2)C1c1cc(OC)c(OC)c(OC)c1 (stereo not drawn)

>  <Relation Sign>
=

>  <Reading>
5.97

$$$$
>  <Compound>
C=CC1C(=O)N(c2ccc(Br)cc2)C1c1cc(OC)c(OC)c(OC)c1 (stereo not drawn)

>  <Relation Sign>
=

>  <Reading>
4.98

$$$$
>  <Compound>
CCC1C(=O)N(c2cc(OC)c(OC)c(OC)c2)C1c1ccc(OC)c(OP(=O)(O)O)c1 (stereo not drawn) [Compound 17c]

>  <Relation Sign>
=

>  <Reading>
7.68

$$$$
>  <Compound>
C=CC1C(=O)N(c2ccc(C)cc2)C1c1cc(OC)c(OC)c(OC)c1 (stereo not drawn)

>  <Relation Sign>
=

>  <Reading>
4.37

$$$$
>  <Compound>
CC=C1C(=O)N(c2cc(OC)c(OC)c(OC)c2)C1c1ccc(OC)c(O)c1 (stereo not drawn)

>  <Relation Sign>
=

>  <Reading>
6.30

$$$$
>  <Compound>
COc1ccc(C2C(C(O)CO)C(=O)N2c2cc(OC)c(OC)c(OC)c2)cc1O (stereo not drawn)

>  <Relation Sign>
=

>  <Reading>
7.16

$$$$
>  <Compound>
COc1ccc(C2C(C(O)/C=C/c3ccccc3)C(=O)N2c2cc(OC)c(OC)c(OC)c2)cc1 (stereo not drawn) [Compound 10e]

>  <Relation Sign>
=

>  <Reading>
6.27

$$$$
>  <Compound>
C=CC(C)(O)C1C(=O)N(c2cc(OC)c(OC)c(OC)c2)C1c1ccc(OC)c(O)c1 (stereo not drawn) [Compound 10h]

>  <Relation Sign>
=

>  <Reading>
6.33

$$$$
>  <Compound>
C=CC1C(=O)N(c2cc(OC)c(OC)c(OC)c2)C1c1ccc(OCC)cc1 (stereo not drawn)

>  <Relation Sign>
=

>  <Reading>
7.43

$$$$
>  <Compound>
C=CC1C(=O)N(c2cc(OC)c(OC)c(OC)c2)C1c1ccc([N+](=O)[O-])cc1 (stereo not drawn)

>  <Relation Sign>
=

>  <Reading>
5.42

$$$$
>  <Compound>
C=CC1C(=O)N(c2cc(OC)c(OC)c(OC)c2)C1c1ccc(N(C)C)cc1 (stereo not drawn)

>  <Relation Sign>
=

>  <Reading>
5.39

$$$$
>  <Compound>
C=CC1C(=O)N(c2cc(OC)c(OC)c(OC)c2)C1c1ccccc1 (stereo not drawn)

>  <Relation Sign>
=

>  <Reading>
5.39

$$$$
>  <Compound>
C=CC1C(=O)N(c2cc(OC)c(OC)c(OC)c2)C1c1ccc(OC)c(OP(=O)(O)O)c1 (stereo not drawn) [Compound 17b]

>  <Relation Sign>
=

>  <Reading>
7.57

$$$$
>  <Compound>
C=CC1C(=O)N(c2cc(OC)c(OC)c(OC)c2)C1c1ccc(C)cc1 (stereo not drawn)

>  <Relation Sign>
=

>  <Reading>
6.45

$$$$
>  <Compound>
C=CC(O)C1C(=O)N(c2cc(OC)c(OC)c(OC)c2)C1c1ccc(OC)c(O)c1 (stereo not drawn) [Compound 10g]

>  <Relation Sign>
=

>  <Reading>
6.54

$$$$
